Target: F508delCFTR (Homo sapiens, UniProt P13569, DEL508-508)
Construct: expressed in transfected cells; host or cells: CFBE41o- human lung derived epithelial cells (CFBE41o-F508delCFTR-HRP), doxycycline-inducible
Sequence (P13569 with tags, fused parts or gaps DEL508-508): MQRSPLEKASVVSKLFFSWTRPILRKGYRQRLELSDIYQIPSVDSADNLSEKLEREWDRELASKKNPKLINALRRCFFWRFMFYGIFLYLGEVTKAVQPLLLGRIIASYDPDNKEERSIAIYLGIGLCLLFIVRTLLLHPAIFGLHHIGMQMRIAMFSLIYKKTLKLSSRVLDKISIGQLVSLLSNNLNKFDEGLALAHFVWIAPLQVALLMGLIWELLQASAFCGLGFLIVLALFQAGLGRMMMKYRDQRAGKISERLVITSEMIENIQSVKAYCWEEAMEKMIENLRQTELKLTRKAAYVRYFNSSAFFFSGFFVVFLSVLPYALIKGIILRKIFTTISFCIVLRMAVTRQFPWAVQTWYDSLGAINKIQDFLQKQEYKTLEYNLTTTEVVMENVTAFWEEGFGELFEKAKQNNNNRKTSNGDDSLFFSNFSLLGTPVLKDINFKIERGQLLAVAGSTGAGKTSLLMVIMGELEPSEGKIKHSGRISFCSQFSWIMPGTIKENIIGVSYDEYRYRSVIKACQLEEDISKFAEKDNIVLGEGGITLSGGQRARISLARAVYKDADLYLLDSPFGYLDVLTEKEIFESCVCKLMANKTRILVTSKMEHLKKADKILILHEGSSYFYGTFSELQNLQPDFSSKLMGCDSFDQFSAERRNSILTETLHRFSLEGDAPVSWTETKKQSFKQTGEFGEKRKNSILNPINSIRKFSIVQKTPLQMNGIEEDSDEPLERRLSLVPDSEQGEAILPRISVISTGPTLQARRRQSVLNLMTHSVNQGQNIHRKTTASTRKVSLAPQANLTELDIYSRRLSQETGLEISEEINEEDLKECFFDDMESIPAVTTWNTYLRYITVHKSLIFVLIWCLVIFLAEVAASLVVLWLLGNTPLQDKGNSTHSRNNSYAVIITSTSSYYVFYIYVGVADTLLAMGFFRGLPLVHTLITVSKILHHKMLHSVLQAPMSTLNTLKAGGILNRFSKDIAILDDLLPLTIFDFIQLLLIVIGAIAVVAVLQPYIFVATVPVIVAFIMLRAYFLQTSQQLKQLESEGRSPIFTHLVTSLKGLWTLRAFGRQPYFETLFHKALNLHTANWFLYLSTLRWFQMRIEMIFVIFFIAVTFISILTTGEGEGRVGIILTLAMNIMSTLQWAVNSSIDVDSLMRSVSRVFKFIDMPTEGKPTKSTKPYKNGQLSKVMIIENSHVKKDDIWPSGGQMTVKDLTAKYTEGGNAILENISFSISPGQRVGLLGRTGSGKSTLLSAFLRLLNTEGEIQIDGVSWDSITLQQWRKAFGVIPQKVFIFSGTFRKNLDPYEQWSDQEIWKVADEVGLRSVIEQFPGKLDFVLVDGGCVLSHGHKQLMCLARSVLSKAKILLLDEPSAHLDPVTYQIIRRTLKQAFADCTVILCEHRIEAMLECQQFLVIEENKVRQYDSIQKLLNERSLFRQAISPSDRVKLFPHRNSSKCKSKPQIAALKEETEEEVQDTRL
Assay: Cell Surface Expression-Horse Radish Peroxidase (CSE-HRP) Assay
Assay type: cell-based
Conditions: test compound with co-corrector; maximum at any tested concentration
Protocol: A cellular assay for measuring the F508delCFTR cell surface expression after correction with test compounds either without or with a co-corrector (2 μM of 3-[(2R,4R)-4-({[1-(2,2-difluoro-1,3-benzodioxol-5-yl)cyclopropyl]carbonyl}amino)-7-methoxy-3,4-dihydro-2H-chromen-2-yl]benzoic acid), was developed in human lung derived epithelial cell line (CFBE4lo−) (Veit G et al, (2012) Mol Biol Cell. 23(21): 4188-4202). […] The raw counts from the experiment were analyzed using Accelrys® Assay Explorer v3.3. […]
Measured parameter: Maximum % activity (with co-corrector)

CCc1cnc(N2CCC(OC(C)C)CC2)c(C2(C(=O)NS(=O)(=O)c3cccc4[nH]ccc34)CC2)c1 = +++ (≥350)
CC(C)Oc1ccc(C2(C(=O)NS(=O)(=O)c3cccc4ncccc34)CC2)c(N(C)C)n1 = ++ (≥150 and <350)
CCOc1ncc(C2CCC2)cc1C1(C(=O)NS(=O)(=O)c2cccc3ncccc23)CC1 = +++ (≥350)
CCOc1ncc(C2CCC2)cc1C1(C(=O)NS(=O)(=O)c2cccc3nc(C)ccc23)CC1 = +++ (≥350)
COCCOc1ncc(C2CCC2)cc1C1(C(=O)NS(=O)(=O)c2cccc3[nH]ccc23)CC1 = +++ (≥350)
Cc1cnc(OCC(C)C)c(C2(C(=O)NS(=O)(=O)c3cccc4ncccc34)CC2)c1 = +++ (≥350)
CC(C)COc1ncc(N2CCCC2)cc1C1(C(=O)NS(=O)(=O)c2cccc3ncccc23)CC1 = +++ (≥350)
O=C(NS(=O)(=O)c1cccc2ncccc12)C1(c2cc(C3CCC3)cnc2N2CCOCC2)CC1 = ++ (≥150 and <350)

Please go through the list and note Maximum % activity (with co-corrector) for each compound.
1. CC(C)COc1ncc(C2CC2)cc1C1(C(=O)NS(=O)(=O)c2cccc3ncccc23)CC1
2. Cc1ccc2c(S(=O)(=O)NC(=O)C3(c4cc(C5CC5)cnc4N4CCCC4)CC3)cccc2n1
3. CC(C)OC1CCN(c2ncc(C3CCC3)cc2C2(C(=O)NS(=O)(=O)c3cccc4[nH]ccc34)CC2)CC1
4. Cc1ccc2c(S(=O)(=O)NC(=O)C3(c4cc(N5CCCC5)cnc4OC(C)C)CC3)cccc2n1
5. Cc1cnc(N2CCOCC2)cc1C1(C(=O)NS(=O)(=O)c2cccc3ncccc23)CC1
6. CC(C)COc1ncc(N2CCCC2)cc1C1(C(=O)NS(=O)(=O)c2cccc3[nH]ccc23)CC1

1. +++ (≥350)
2. +++ (≥350)
3. +++ (≥350)
4. +++ (≥350)
5. ++ (≥150 and <350)
6. +++ (≥350)

Please go through the list and note Maximum % activity (with co-corrector) for each compound.
1. Cc1cnc(OCC(C)C)c(C2(C(=O)NS(=O)(=O)c3cccc4nc(C)ccc34)CC2)c1
2. CCc1cnc(N2CCOCC2)c(C2(C(=O)NS(=O)(=O)c3cccc4nc(C)ccc34)CC2)c1
3. COc1cnc(OCC(C)C)c(C2(C(=O)NS(=O)(=O)c3cccc4ncccc34)CC2)c1
4. COCC1CCN(c2ncc(C3CCC3)cc2C2(C(=O)NS(=O)(=O)c3cccc4ncccc34)CC2)CC1
5. COc1cc(C2(C(=O)NS(=O)(=O)c3cccc4ncccc34)CC2)c(C)cn1
6. CC(C)Oc1cnc(Cl)c(C2(C(=O)NS(=O)(=O)c3cccc4ncccc34)CC2)c1
7. CCc1cnc(N2CCC(COC)CC2)c(C2(C(=O)NS(=O)(=O)c3cccc4[nH]ccc34)CC2)c1
8. CC(C)Oc1ncc(C2CC2)cc1C1(C(=O)NS(=O)(=O)c2cccc3[nH]ccc23)CC1

1: +++ (≥350); 2: ++ (≥150 and <350); 3: +++ (≥350); 4: +++ (≥350); 5: +++ (≥350); 6: ++ (≥150 and <350); 7: +++ (≥350); 8: +++ (≥350)

Please go through the list and note Maximum % activity (with co-corrector) for each compound.
1. CCc1cnc(N2CCCC2)c(C2(C(=O)NS(=O)(=O)c3cccc4ncccc34)CC2)c1
2. Cc1cnc(N2CCCC2)c(C2(C(=O)NS(=O)(=O)c3cccc4ncccc34)CC2)c1
3. COc1cc(C)c(C2(C(=O)NS(=O)(=O)c3cccc4c3CCCN4)CC2)cn1

+++ (≥350)
+++ (≥350)
++ (≥150 and <350)
